All values here come from patent US20240246972A1.

Assayed target: ROCK2 (Homo sapiens (Human), UniProt O75116)
Sequence (O75116 whole entry): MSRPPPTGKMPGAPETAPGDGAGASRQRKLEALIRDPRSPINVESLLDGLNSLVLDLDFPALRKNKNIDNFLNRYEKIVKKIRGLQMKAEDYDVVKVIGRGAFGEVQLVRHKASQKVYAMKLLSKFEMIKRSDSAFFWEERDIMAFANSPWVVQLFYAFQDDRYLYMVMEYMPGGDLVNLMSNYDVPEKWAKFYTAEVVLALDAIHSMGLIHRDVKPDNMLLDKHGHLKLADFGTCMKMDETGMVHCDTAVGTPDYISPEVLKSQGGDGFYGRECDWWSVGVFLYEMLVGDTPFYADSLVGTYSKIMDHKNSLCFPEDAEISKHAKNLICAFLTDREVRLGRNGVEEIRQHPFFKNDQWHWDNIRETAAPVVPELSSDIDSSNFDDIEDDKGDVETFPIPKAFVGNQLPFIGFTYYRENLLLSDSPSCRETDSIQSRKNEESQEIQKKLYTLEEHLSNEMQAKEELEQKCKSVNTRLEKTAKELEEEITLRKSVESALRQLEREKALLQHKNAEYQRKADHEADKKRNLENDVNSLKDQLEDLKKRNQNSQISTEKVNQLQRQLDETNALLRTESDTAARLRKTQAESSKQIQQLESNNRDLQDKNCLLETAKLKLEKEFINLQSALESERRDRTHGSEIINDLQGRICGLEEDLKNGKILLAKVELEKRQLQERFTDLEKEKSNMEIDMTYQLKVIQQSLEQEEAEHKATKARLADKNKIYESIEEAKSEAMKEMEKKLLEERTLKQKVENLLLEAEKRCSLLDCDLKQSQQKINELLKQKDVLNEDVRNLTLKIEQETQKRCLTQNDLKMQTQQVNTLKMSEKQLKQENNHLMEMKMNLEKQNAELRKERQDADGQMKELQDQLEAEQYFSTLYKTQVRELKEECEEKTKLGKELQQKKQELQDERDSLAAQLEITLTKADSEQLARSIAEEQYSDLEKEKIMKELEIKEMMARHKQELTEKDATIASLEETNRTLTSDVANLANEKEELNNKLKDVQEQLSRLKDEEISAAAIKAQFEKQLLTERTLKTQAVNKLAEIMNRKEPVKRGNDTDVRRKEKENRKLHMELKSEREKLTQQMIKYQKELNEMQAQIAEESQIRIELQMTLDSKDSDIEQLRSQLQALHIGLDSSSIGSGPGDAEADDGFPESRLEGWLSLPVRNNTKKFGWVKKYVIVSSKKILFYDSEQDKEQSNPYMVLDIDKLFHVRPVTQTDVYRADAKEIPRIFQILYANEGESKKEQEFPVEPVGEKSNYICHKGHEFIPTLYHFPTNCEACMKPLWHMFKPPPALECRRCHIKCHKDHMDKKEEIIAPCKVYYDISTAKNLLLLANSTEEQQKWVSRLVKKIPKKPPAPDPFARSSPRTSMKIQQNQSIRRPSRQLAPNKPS
Measurement notes: ROCK2 inhibition assay (HotSpot kit, 33P-ATP)
Assay type: biochemical
Details: Table 2A; 10 μM ATP
pIC50: −log10 of the molar value.

# Molecule, pIC50
measured = [
    ("Cn1c(C(=O)NCc2ccccc2F)cc2ccc(-c3cn[nH]c3)nc21", 8.64),
    ("Cc1[nH]ncc1-c1ccc2cc(C(=O)NCc3c(Cl)cccc3OC3COC3)[nH]c2n1 [Comparator 3, reference compound]", 6.23),
]

---

Measurement notes: 24 hour rat pharmacokinetics
Assay type: in vivo, Sprague-dawley rats
Details: Sprague-Dawley, in vivo, PO 10 mg/kg, male

# Chemical string, Tmax, h
data = [
    ("Cn1c(C(=O)NCc2ccccc2F)cc2ccc(-c3cn[nH]c3)nc21", 2.67),
]
